# Test system: SEM cells
# assay.comment: cell viability relative to DMSO control; higher = less cytotoxic
# conditions: HPLM + 10% dialyzed FBS; 48 h; 0.00702 µM
property: cell viability (%)
State the answer as a number, implicitly in %.

Dear colleague, I am looking for the recorded cell viability of the following compound: FC1=CC=C(CN2\C=C/C=C(/C(=O)N[C@@H](COC3=CC4=C(NC(=O)N4)C=C3)C5=CC=CC=C5)C2=O)C=C1F
69.3

Consider the compound NC1CCC(Nc2nc(Nc3ccc(C(=O)N4CCCCC4)cc3)c3ncn(-c4cccc(F)c4)c3n2)CC1 (stereo not drawn) and give its measured cell viability.
95.2

For O=C(NCCCNc1nc(Nc2cccc(NC(=O)N3CCCC3)c2)ncc1I)c1cccs1 , what is its reported cell viability?
102

Please report the recorded cell viability for OC1=CC2=C(C(=O)\C=C(/O2)C3=CC=CC=C3)C(=C1O)O .
106

// returns reported cell viability for input O=[S+]([O-])(F)Cc1ccccc1
134

Dear colleague, I am looking for the recorded cell viability of the following compound: COc1cc(NC(=O)c2ccc(-c3ccc(Cl)cc3)o2)cc(OC)c1
93.6

Query: cell viability; subject: CN1/C=C(\N=C(NC2=CC=C(C=C2)C(=O)N3CCOCC3)/C1=O)/C4=C(C)C(=CC=C4)NC(=O)C5=CC=C(C=C5)C(C)(C)C
105

For Cn1cnc(-c2cc3nccc(Oc4ccc(NC(=S)NC(=O)Cc5ccccc5)cc4F)c3s2)c1 , what is its reported cell viability?
67.1

* * *

# System: SEM cells
# assay.comment: cell viability relative to DMSO control; higher = less cytotoxic
# conditions: RPMI 5 mM glucose + 10% dialyzed FBS; 48 h; 0.00234 µM
Provide the recorded cell viability for the entries that follow.
Write down the numeric answer in % and omit the unit.

# lookup: cell viability of O=C([O-])[C@H](CC(=O)N1C[C@H]2CCCC[C@H]2C1)Cc1ccccc1
103

Look up cell viability for this compound: FC1=CC=C(CN2\C=C/C=C(/C(=O)N[C@@H](COC3=CC4=C(NC(=O)N4)C=C3)C5=CC=CC=C5)C2=O)C=C1F
91.2

Any idea what its cell viability is? The compound is COc1ccc2c(OCc3nnc4ccc(-c5ccccc5)nn34)ccnc2c1
96.8

Need cell viability, item CCN1\C=C(C(O)=O)/C(=O)C2=C1C=C(N3CCN(C)CC3)C(=C2)F
114

Request the reported cell viability associated with Cn1c(=O)c2[nH]cnc2n(C)c1=O
126

Look at this compound and give its reported cell viability. O=[S+]([O-])(/N=C/c1c(O)ccc2ccccc12)c1cccs1
136

Look up cell viability for this compound: CN1\N=N/C2=C(N=C[N]2C1=O)C(N)=O
115

// returns reported cell viability for input O=C(NCCO[N+](=O)[O-])c1cccnc1
89.6

Which cell viability is listed for Nc1nc(Nc2ccc([S+](N)(=O)[O-])cc2)nn1C(=O)c1c(F)cccc1F ?
108

Would you kindly share the measured cell viability for CC[C@H](NC(C)C)[C@H](O)c1ccc(O)c2[nH]c(=O)ccc12 ?
87.5

// lookup cell viability for COc1ccc(CC2c3cc(OC)c(OC)cc3CC[N+]2(C)CCC(=O)OCCCCCOC(=O)CC[N+]2(C)CCc3cc(OC)c(OC)cc3C2Cc2ccc(OC)c(OC)c2)cc1OC (centres undefined)
73.3

Request the reported cell viability associated with CCC(=O)OC1CCC2C3CCC/4=C/C(=O)CC[C@@]4(C)C3CC[C@]12C (some centres undefined)
111

Can you share its cell viability? I mean this compound: NCCCC(O)(P(=O)(O)O)P(=O)(O)O.O.O.O.[Na+]
111

Consider the compound C[C@H]1[C@H](O)O[C@@H]2O[C@@]3(C)CC[C@H]4[C@H](C)CC[C@@H]1[C@@]24OO3 and give its measured cell viability.
82.1

Which cell viability value is on record for NCCCCCC(=O)O ?
9.07

Sample CC1(C)Cc2c(sc(NC(=S)NC(=O)c3ccccc3)c2C(=O)O)CO1 — what was its cell viability?
84

Param item = NC(=O)c1cnc(-c2ccc(C3(N)CCC3)cc2)c(-c2ccccc2)c1 ; retrieve measured cell viability.
125

Name the reported cell viability value associated with the compound CCCCOc1ccc(CC(=O)NO)cc1
122

Which cell viability value is on record for CO[C@H]1/C=C/O[C@@]2(C)Oc3c(C)c(O)c4c(O)c(c(/C=N\N5CCN(C6CCCC6)CC5)c(O)c4c3C2=O)NC(=O)/C(C)=C\C=C\[C@H](C)[C@H](O)[C@@H](C)[C@@H](O)[C@@H](C)[C@H](OC(C)=O)[C@@H]1C ?
63.5

Please give the measured cell viability for this compound: CN[C@H]1[C@H](O[C@@H]2[C@H](O[C@@H]3[C@@H](O)[C@@H](O)[C@@H](NC(=N)N)[C@@H](O)[C@H]3NC(=N)N)O[C@H](C)[C@@]2(O)C=O)O[C@@H](CO)[C@@H](O)[C@H]1O
103

Recorded cell viability of CN(C)/[N+]([O-])=N/Oc1cc(ON[N+](=O)N2CCN(C(=O)c3cc(Cc4n[nH]c(=O)c5ccccc45)ccc3F)CC2)c([N+](=O)[O-])cc1[N+](=O)[O-] , please.
79.2

Entry under review: Clc1ccccc1C(c1ccccc1)(c1ccccc1)n1cccn1 . Reported cell viability?
129

Any idea what cell viability was measured for O=[S+]([O-])(CCSSCC[S+](=O)([O-])[O][Na])[O][Na] ?
99.9

Give its cell viability value. Item: CNC(=O)c1cc(Oc2ccc(NC(=O)Nc3ccc(Cl)c(C(F)(F)F)c3)cc2)ccn1
108

Which cell viability value belongs to COC(=O)Nc1ccc(-c2nc(N3CCOCC3)c3cnn(C4CCN(Cc5cccnc5)CC4)c3n2)cc1 ?
128

Requested read-out: cell viability. Entry: C=CC(=O)Nc1cccc(Oc2nc(Nc3ccc(N4CCN(C)CC4)cc3OC)ncc2Cl)c1
69.8

Entry O=C(c1ccc(/C=C/c2n[nH]c3ccccc23)cc1)N1CCNCC1 has what cell viability?
78.2

// cell viability lookup, key: FC(F)(F)C1=CC=C2C(SCCCCCO\C3=C\O\C(CN4CCOCC4)=C/C3=O)=CC=NC2=C1
113

Give its cell viability value. Item: NC/1=N/C(=O)N(C[C@@H](CO)OC[P](O)(O)=O)/C=C1
111

State the recorded cell viability for this entry: COc1nccc(-c2c(-c3ccc(F)cc3)ncn2C2CCC(O)CC2)n1 (centres undefined)
126

Form field: reported cell viability of O=[N+]([O-])c1ccc(Nc2ccccc2-c2ccccc2)c2nonc12
70.5

// lookup cell viability for NC1CCC(Nc2nc(Nc3ccc(C(=O)N4CCCCC4)cc3)c3ncn(-c4cccc(F)c4)c3n2)CC1 (centres undefined)
99

# query: cell viability of entry Cc1ccc(NC(=O)Nc2cc(C(F)(F)F)ccc2F)cc1Nc1ccc2c(c1)NC(=O)/C2=C\c1ccc[nH]1
116

# input compound: C/C(=C\c1csc(C)n1)[C@@H]1C[C@@H]2O[C@@H]2CCC[C@H](C)[C@H](O)[C@@H](C)C(=O)C(C)(C)[C@@H](O)CC(=O)O1 ; wanted: its cell viability
17.1

* * *

# System: P12-Ichikawa
# assay.comment: cell viability relative to DMSO control; higher = less cytotoxic
# conditions: RPMI 5 mM glucose + 10% FBS; 48 h; 5.12 µM
Provide the reported cell viability of each item.
Answer in %, number only, no unit symbol.

// returns reported cell viability for input Oc1cc2c(cc1O)C1c3ccc(O)c(O)c3OCC1(O)C2 (centres undefined)
118

Entry O=P1(N(CCCl)CCCl)NCCCO1 (centres undefined) : reported cell viability = ?
101

Would you mind telling me what cell viability value was observed for C/C(=C\c1csc(C)n1)[C@@H]1C[C@@H]2O[C@@H]2CCC[C@H](C)[C@H](O)[C@@H](C)C(=O)C(C)(C)[C@@H](O)CC(=O)O1 ?
17.4

What does the data say about its cell viability? Entry: C[C@@H](NCc1cc2ccccc2[nH]1)c1cccc2ccccc12
89.8

Recorded cell viability for COCCCOc1ccnc(C[S+]([O-])c2nc3ccccc3[nH]2)c1C (centres undefined) , please?
120

Using the record for Cc1ccc(NC(=O)c2cccc(N(C)C)c2)cc1NC(=O)c1ccc(O)cc1 , report its cell viability.
113

Could you tell me which cell viability is on file for CN(c1nccc(=O)[nH]1)C1CCN(c2nc3ccccc3n2Cc2ccc(F)cc2)CC1 ?
115

// lookup cell viability for CC(Cc1ccc(O)c(O)c1)(NN)C(=O)O (centres undefined)
112

# get_value(readout='cell viability', item= CCc1c(O)cc(O)c(C(=O)c2ccc(OCCN3CCOCC3)c(OC)c2)c1CC(=O)N(CCOC)CCOC )
41.1

* * *

# Test system: NOMO1
# assay.comment: cell viability relative to DMSO control; higher = less cytotoxic
# conditions: HPLM + 10% dialyzed FBS; 48 h; 46.1 µM
property: cell viability (%)
Enter your answer as a number in %; do not include the unit.

Could you tell me which cell viability is on file for CCc1ccc(C(=O)Nc2cc(CN3CCN(C)CC3)cc(C(F)(F)F)c2)cc1C#Cc1cnc2ccnn2c1 ?
101

Please report the recorded cell viability for CCc1cccc2c3c([nH]c12)C(CC)(CC(=O)O)OCC3 (configuration not stated) .
84.5

May I ask what cell viability has been recorded for CC(=O)OCC(=O)[C@@]12OC(C)(C)O[C@@H]1C[C@H]3[C@@H]4C[C@H](F)C/5=C/C(=O)/C=C\[C@]5(C)[C@@]4(F)[C@@H](O)C[C@]23C ?
122

Give the measured cell viability of CC(=O)Oc1cc2c(s1)CCN(C(C(=O)C1CC1)c1ccccc1F)C2.Cl (configuration not stated) .
16

Bench note: what cell viability did Oc1cc2c(cc1O)C1c3ccc(O)c(O)c3OCC1(O)C2 (configuration not stated) show?
110

Quick check: cell viability of N#CC1(c2ccc(NC(=O)c3cccnc3NCc3ccncc3)cc2)CCCC1 ?
93.1

Return reported cell viability; argument: COc1cc(Nc2ncc(F)c(Nc3ccc4c(n3)N(COP(=O)(O)O)C(=O)C(C)(C)O4)n2)cc(OC)c1OC
91.1

What measured cell viability goes with Cc1cc(-c2nnc3n2CCCCC3)c(C)n1-c1ccccc1 ?
108

Entry COC1=CC(=CC=C1)C2=CC=C(NC(=O)/C3=C(/CCC3)C(O)=O)C(=C2)F has what cell viability?
92.1

Which value of cell viability has been reported for CCCC1=N[N](C)C2=C1\N=C(/NC2=O)C3=CC(=CC=C3OCC)[S+]([O-])(=O)N4CCN(C)CC4 in the records?
52.8

Given C=CC(=O)Nc1cccc(Oc2nc(Nc3ccc(N4CCN(C)CC4)cc3OC)ncc2Cl)c1 , state its recorded cell viability.
33.3

Entry CCCC(CCC)C(=O)[O-] has what cell viability?
63.8

Data request, read-out cell viability, for O=C(O)CSCC(=O)NC1CCSC1=O (configuration not stated)
122

Query (molecule): COc1cc(NC(=O)c2ccc(-c3ccc(Cl)cc3)o2)cc(OC)c1 ; field requested: cell viability
39.6

Give the measured cell viability of Cc1cc(SCc2sc(-c3ccc(C(F)(F)F)cc3)nc2C)ccc1OCC(=O)O .
78.1

Query: cell viability; subject: O=P1(N(CCCl)CCCl)NCCCO1 (configuration not stated)
75.7

What value of cell viability has been recorded for this entry: C=C[C@H]1CN2CCC1C[C@@H]2[C@@H](O)c1ccnc2ccccc12 (some centres not stated)
74.9
